Reference source for all entries: ChEMBL document CHEMBL6120978

test: Cytotoxicity against chinese hamster V79 cells incubated for 72 hrs by MTT assay; format: toxicity, cell-based, Cricetulus griseus
Reported values of IC50 at 72 h for individual entries
The reply should contain only the number, in µM.

See these solved cases before continuing.
[[record]]
linenotation = "CC[C@@H](C(=O)[C@@H](C)[C@@H](O)[C@H](C)[C@@H]1O[C@@H]([C@@H](CC)C(=O)OCc2ccccc2)CC[C@@H]1C)[C@H]1O[C@]2(C=C[C@@H](O)[C@]3(CC[C@@](C)([C@H]4CC[C@](O)(CC)[C@H](C)O4)O3)O2)[C@H](C)C[C@@H]1C"
unitabbreviation = "µM"
experimentalvalue = 5.83

[[record]]
linenotation = "CC[C@@H](C(=O)[C@@H](C)[C@@H](O)[C@H](C)[C@@H]1O[C@@H]([C@@H](CC)C(=O)OCCCC[P+](c2ccc(C)cc2)(c2ccc(C)cc2)c2ccc(C)cc2)CC[C@@H]1C)[C@H]1O[C@]2(C=C[C@@H](O)[C@]3(CC[C@@](C)([C@H]4CC[C@](O)(CC)[C@H](C)O4)O3)O2)[C@H](C)C[C@@H]1C.[Br-]"
unitabbreviation = "µM"
experimentalvalue = 3.77


Kindly consider the entry below.
Entry under review: "CC[C@@H](C(=O)[C@@H](C)[C@@H](O)[C@H](C)[C@@H]1O[C@@H]([C@@H](CC)C(=O)OCCCCCC[P+](c2ccccc2)(c2ccccc2)c2ccc(N(C)C)cc2)CC[C@@H]1C)[C@H]1O[C@]2(C=C[C@@H](O)[C@]3(CC[C@@](C)([C@H]4CC[C@](O)(CC)[C@H](C)O4)O3)O2)[C@H](C)C[C@@H]1C.[Br-]" . Reported IC50 at 72 h? 0.6

----------
experiment: Cytotoxicity against chinese hamster V79 cells incubated for 72 hrs by MTT assay; assay type: toxicity, cell-based, Cricetulus griseus
Reported values of IC50 at 72 h for individual entries
The reply should contain only the number, in nM.

[[record]]
linenotation = "CC[C@@H](C(=O)[C@@H](C)[C@@H](O)[C@H](C)[C@@H]1O[C@@H]([C@@H](CC)C(=O)OCCCC[P+](c2ccc(OC)cc2)(c2ccc(OC)cc2)c2ccc(OC)cc2)CC[C@@H]1C)[C@H]1O[C@]2(C=C[C@@H](O)[C@]3(CC[C@@](C)([C@H]4CC[C@](O)(CC)[C@H](C)O4)O3)O2)[C@H](C)C[C@@H]1C.[Br-]"
experimentalvalue = 670

[[record]]
linenotation = "COc1cccc2c1C(=O)c1c(O)c3c(c(O)c1C2=O)C[C@@](O)(C(=O)CO)C[C@@H]3O[C@H]1C[C@H](N)[C@H](O)[C@H](C)O1"
experimentalvalue = 2010

[[record]]
linenotation = "CC[C@@H](C(=O)[C@@H](C)[C@@H](O)[C@H](C)[C@@H]1O[C@@H]([C@@H](CC)C(=O)OCCCCCC[P+](c2ccc(OC)cc2)(c2ccc(OC)cc2)c2ccc(OC)cc2)CC[C@@H]1C)[C@H]1O[C@]2(C=C[C@@H](O)[C@]3(CC[C@@](C)([C@H]4CC[C@](O)(CC)[C@H](C)O4)O3)O2)[C@H](C)C[C@@H]1C.[Br-]"
experimentalvalue = 600

[[record]]
linenotation = "CCCC[P+](CCCC)(CCCC)CCCCOC(=O)[C@H](CC)[C@H]1CC[C@H](C)[C@H]([C@@H](C)[C@H](O)[C@H](C)C(=O)[C@H](CC)[C@H]2O[C@]3(C=C[C@@H](O)[C@]4(CC[C@@](C)([C@H]5CC[C@](O)(CC)[C@H](C)O5)O4)O3)[C@H](C)C[C@@H]2C)O1.[Br-]"
experimentalvalue = 590


Entry under review: "CC[C@@H](C(=O)[C@@H](C)[C@@H](O)[C@H](C)[C@@H]1O[C@@H]([C@@H](CC)C(=O)OCCCCCC[P+](c2ccc(C)cc2)(c2ccc(C)cc2)c2ccc(C)cc2)CC[C@@H]1C)[C@H]1O[C@]2(C=C[C@@H](O)[C@]3(CC[C@@](C)([C@H]4CC[C@](O)(CC)[C@H](C)O4)O3)O2)[C@H](C)C[C@@H]1C.[Br-]" . Reported IC50 at 72 h? 670

----------
system: SW480; experiment: Cytotoxicity against human SW480 cells incubated for 72 hrs by MTT assay; assay type: functional, cell-based; conditions: SW480, 72 h
measuredProperty: IC50

Entry under review: "CC[C@@H](C(=O)[C@@H](C)[C@@H](O)[C@H](C)[C@@H]1O[C@@H]([C@@H](CC)C(=O)OCCCCCC[P+](c2ccccc2)(c2ccccc2)c2ccccc2)CC[C@@H]1C)[C@H]1O[C@]2(C=C[C@@H](O)[C@]3(CC[C@@](C)([C@H]4CC[C@](O)(CC)[C@H](C)O4)O3)O2)[C@H](C)C[C@@H]1C.[Br-]" . Reported IC50? 710 nM

Then "CC[C@@H](C(=O)[C@@H](C)[C@@H](O)[C@H](C)[C@@H]1O[C@@H]([C@@H](CC)C(=O)OCCCC[P+](c2ccc(OC)cc2)(c2ccc(OC)cc2)c2ccc(OC)cc2)CC[C@@H]1C)[C@H]1O[C@]2(C=C[C@@H](O)[C@]3(CC[C@@](C)([C@H]4CC[C@](O)(CC)[C@H](C)O4)O3)O2)[C@H](C)C[C@@H]1C.[Br-]" ? 730 nM

Then CC[C@@H](C(=O)[C@@H](C)[C@@H](O)[C@H](C)[C@@H]1O[C@@H]([C@@H](CC)C(=O)O)CC[C@@H]1C)[C@H]1O[C@]2(C=C[C@@H](O)[C@]3(CC[C@@](C)([C@H]4CC[C@](O)(CC)[C@H](C)O4)O3)O2)[C@H](C)C[C@@H]1C [SALINOMYCIN] ? 1360 nM

----------
Reported values of IC50 at 72 h for individual entries
assay: Cytotoxicity against human HaCaT cells incubated for 72 hrs by MTT assay; format: toxicity, cell-based

See these solved cases before continuing.
[[record]]
linenotation = "CC[C@@H](C(=O)[C@@H](C)[C@@H](O)[C@H](C)[C@@H]1O[C@@H]([C@@H](CC)C(=O)OCCCC[P+](c2ccccc2)(c2ccccc2)c2ccccc2)CC[C@@H]1C)[C@H]1O[C@]2(C=C[C@@H](O)[C@]3(CC[C@@](C)([C@H]4CC[C@](O)(CC)[C@H](C)O4)O3)O2)[C@H](C)C[C@@H]1C.[Br-]"
measuredproperty = "IC50 at 72 h"
experimentalvalue = "1.23 µM"

[[record]]
linenotation = "CC[C@@H](C(=O)[C@@H](C)[C@@H](O)[C@H](C)[C@@H]1O[C@@H]([C@@H](CC)C(=O)OCCCCCC[P+](c2ccccc2)(c2ccccc2)c2ccc(N(C)C)cc2)CC[C@@H]1C)[C@H]1O[C@]2(C=C[C@@H](O)[C@]3(CC[C@@](C)([C@H]4CC[C@](O)(CC)[C@H](C)O4)O3)O2)[C@H](C)C[C@@H]1C.[Br-]"
measuredproperty = "IC50 at 72 h"
experimentalvalue = "0.71 µM"


Kindly consider the entry below.
Entry under review: "CC[C@@H](C(=O)[C@@H](C)[C@@H](O)[C@H](C)[C@@H]1O[C@@H]([C@@H](CC)C(=O)OCCCC[P+](c2ccc(OC)cc2)(c2ccc(OC)cc2)c2ccc(OC)cc2)CC[C@@H]1C)[C@H]1O[C@]2(C=C[C@@H](O)[C@]3(CC[C@@](C)([C@H]4CC[C@](O)(CC)[C@H](C)O4)O3)O2)[C@H](C)C[C@@H]1C.[Br-]" . Reported IC50 at 72 h? 1.12 µM

----------
experiment: Selectivity index, ratio of IC50 for cytotoxicity against chinese hamster V79 cells to IC50 for cytotoxicity against human SW480 cells; assay type: toxicity, cell-based; settings: V79 cells versus SW480 cells, read-out: Ratio IC50
Reported values of selectivity ratio for individual entries

Entry under review: "CCCC[P+](CCCC)(CCCC)CCCCOC(=O)[C@H](CC)[C@H]1CC[C@H](C)[C@H]([C@@H](C)[C@H](O)[C@H](C)C(=O)[C@H](CC)[C@H]2O[C@]3(C=C[C@@H](O)[C@]4(CC[C@@](C)([C@H]5CC[C@](O)(CC)[C@H](C)O5)O4)O3)[C@H](C)C[C@@H]2C)O1.[Br-]" . Reported selectivity ratio? 1.2

Then "CCCC[P+](CCCC)(CCCC)CCCCCCOC(=O)[C@H](CC)[C@H]1CC[C@H](C)[C@H]([C@@H](C)[C@H](O)[C@H](C)C(=O)[C@H](CC)[C@H]2O[C@]3(C=C[C@@H](O)[C@]4(CC[C@@](C)([C@H]5CC[C@](O)(CC)[C@H](C)O5)O4)O3)[C@H](C)C[C@@H]2C)O1.[Br-]" ? 1.3

Then "CC[C@@H](C(=O)[C@@H](C)[C@@H](O)[C@H](C)[C@@H]1O[C@@H]([C@@H](CC)C(=O)O)CC[C@@H]1C)[C@H]1O[C@]2(C=C[C@@H](O)[C@]3(CC[C@@](C)([C@H]4CC[C@](O)(CC)[C@H](C)O4)O3)O2)[C@H](C)C[C@@H]1C" ? 1.1

Then "CC[C@@H](C(=O)[C@@H](C)[C@@H](O)[C@H](C)[C@@H]1O[C@@H]([C@@H](CC)C(=O)OCCCCCC[P+](c2ccc(C)cc2)(c2ccc(C)cc2)c2ccc(C)cc2)CC[C@@H]1C)[C@H]1O[C@]2(C=C[C@@H](O)[C@]3(CC[C@@](C)([C@H]4CC[C@](O)(CC)[C@H](C)O4)O3)O2)[C@H](C)C[C@@H]1C.[Br-]" ? 1.1

Then "CC[C@@H](C(=O)[C@@H](C)[C@@H](O)[C@H](C)[C@@H]1O[C@@H]([C@@H](CC)C(=O)OCCCC[P+](c2ccccc2)(c2ccccc2)c2ccc(N(C)C)cc2)CC[C@@H]1C)[C@H]1O[C@]2(C=C[C@@H](O)[C@]3(CC[C@@](C)([C@H]4CC[C@](O)(CC)[C@H](C)O4)O3)O2)[C@H](C)C[C@@H]1C.[Br-]" ? 0.6

Then "CC[C@@H](C(=O)[C@@H](C)[C@@H](O)[C@H](C)[C@@H]1O[C@@H]([C@@H](CC)C(=O)OCCCC[P+](c2ccc(OC)cc2)(c2ccc(OC)cc2)c2ccc(OC)cc2)CC[C@@H]1C)[C@H]1O[C@]2(C=C[C@@H](O)[C@]3(CC[C@@](C)([C@H]4CC[C@](O)(CC)[C@H](C)O4)O3)O2)[C@H](C)C[C@@H]1C.[Br-]" ? 0.9
